Tested system: Tyrosinase (Homo sapiens)
Test summary: Inhibition of human tyrosinase using L-DOPA as substrate incubated for 10 to 20 mins by MBTH dye based assay
pIC50: −log10 of the molar value.
pIC50 listing for selected compounds.
Readout kind: pIC50

1) O=C(NC1CCCCC1)c1nc(-c2ccc(O)cc2O)cs1 :: 4.25
2) O=C(NC1CCCCC1)c1csc(-c2ccc(O)cc2O)n1 :: 5.49
3) CC(C)Nc1nc(-c2ccc(O)cc2O)cs1 :: 5.96
4) OCc1ccc(Nc2nc(-c3ccc(O)cc3O)cs2)cc1 :: 5.24
5) CC(=O)Nc1nc(-c2ccc(O)cc2O)cs1 :: 5.25
6) CC(C)C(=O)Nc1nc(-c2ccc(O)cc2O)cs1 :: 5.85
7) CC(C)(O)c1ccc(C(=O)Nc2nc(-c3ccc(O)cc3O)cs2)cc1 :: 5.49
8) CC(=O)/C=C/Nc1nc(-c2ccc(O)cc2O)cs1 :: 5.46
9) CC(C)(C)C(=O)Nc1nc(-c2ccc(O)cc2O)cs1 :: 5.24

* * *

Tested system: Mushroom tyrosinase (Agaricus bisporus, UniProt O42713+Q00024+C7FF04+C7FF05)
Test summary: Inhibition of mushroom tyrosinase using L-DOPA as substrate preincubated for 10 mins followed by substrate addition by absorbance based analysis
IC50 listing for selected compounds.
Readout kind: IC50 (µM)

1) Fc1ccccc1/C=N/c1nnc(S)s1 :: 0.76
2) COc1ccc(C2CC(c3cc4ccccc4oc3=O)=NN2c2nc(-c3ccc(Br)cc3)cs2)cc1[N+](=O)[O-] (stereo not drawn) :: 0.87

* * *

IC50 listing for selected compounds.
Tested system: Mushroom tyrosinase (Agaricus bisporus, UniProt O42713+Q00024+C7FF04+C7FF05)
Test summary: Inhibition of mushroom tyrosinase using L-DOPA as substrate preincubated for 10 mins followed by substrate addition by absorbance based analysis
Readout kind: IC50 (nM)

1. COc1cc(/C=N/c2nnc(S)s2)ccc1O :: 36
2. O=c1oc2ccccc2cc1C1=NN(c2nc(-c3ccc(Br)cc3)cs2)C(c2ccc(O)cc2)C1 (stereo not drawn) :: 230
3. COc1ccccc1/C=N/c1nnc(S)s1 :: 730

* * *

Tested system: Mushroom tyrosinase (Agaricus bisporus, UniProt O42713+Q00024+C7FF04+C7FF05)
Test summary: Inhibition of mushroom tyrosinase using L-DOPA as substrate preincubated for 10 mins followed by substrate addition and measured after 20 mins by absorbance based analysis
Readout kind: IC50 (µM)

1. O=C1OC(c2ccc([N+](=O)[O-])cc2)=NC(=S)C1c1nn[nH]n1 (configuration not stated) :: 0.081
2. O=C1C=C(Cn2cc(COc3ccc(Br)cc3)nn2)C(=O)C=C1O :: 6.8
3. Nc1nc(Cc2nnc(SCC(=O)Nc3ccccc3)n2-c2ccccc2)cs1 :: 0.13
4. CCc1ccccc1NC(=O)CSc1nnc(Cc2csc(N)n2)n1-c1ccccc1 :: 0.065
5. COc1ccc(C2=NC(=S)C(C3N=NN=N3)C(=O)O2)cc1 (configuration not stated) :: 0.073
6. O=C1OC(c2cccc([N+](=O)[O-])c2)=NC(=S)C1C1N=NN=N1 (configuration not stated) :: 0.06
7. Cc1cccc(NC(=O)CSc2nnc(Cc3csc(N)n3)n2-c2ccccc2)c1C :: 2.01
8. O=C1C=C(Cn2cc(COc3ccc([N+](=O)[O-])cc3)nn2)C(=O)C=C1O :: 0.52
9. O=C1C=C(Cn2cc(COc3cccc(F)c3)nn2)C(=O)C=C1O :: 1.07
10. O=C1C=C(Cn2cc(COc3ccc(Cl)cc3)nn2)C(=O)C=C1O :: 0.69
11. O=C1OC(c2cccc(Cl)c2)=NC(=S)C1C1N=NN=N1 (configuration not stated) :: 0.071
12. O=C1OC(c2ccccc2Cl)=NC(=S)C1c1nn[nH]n1 (configuration not stated) :: 0.088

* * *

Tested system: Mushroom tyrosinase (Agaricus bisporus, UniProt O42713+Q00024+C7FF04+C7FF05)
Test summary: Inhibition of mushroom tyrosinase incubated for 10 mins by spectrophotometric analysis
Readout kind: IC50

1. CCCCCn1nc(-c2ccccc2)n(CC(=O)NNC(=S)Nc2ccccc2F)c1=O :: > 20 µM
2. CCCCCn1nc(-c2ccccc2)n(CC(=O)NNC(=S)Nc2ccccc2Cl)c1=O :: 4.68 µM
3. CCCCCn1nc(-c2ccccc2)n(CC(=O)NNC(=O)Nc2cccc(F)c2)c1=O :: > 20 µM
4. CCCCCn1nc(-c2ccccc2)n(CC(=O)NNC(=O)Nc2cc(Cl)cc(Cl)c2)c1=O :: > 20 µM

* * *

Tested system: Tyrosinase (Homo sapiens, UniProt P14679)
Sequence (P14679 whole entry): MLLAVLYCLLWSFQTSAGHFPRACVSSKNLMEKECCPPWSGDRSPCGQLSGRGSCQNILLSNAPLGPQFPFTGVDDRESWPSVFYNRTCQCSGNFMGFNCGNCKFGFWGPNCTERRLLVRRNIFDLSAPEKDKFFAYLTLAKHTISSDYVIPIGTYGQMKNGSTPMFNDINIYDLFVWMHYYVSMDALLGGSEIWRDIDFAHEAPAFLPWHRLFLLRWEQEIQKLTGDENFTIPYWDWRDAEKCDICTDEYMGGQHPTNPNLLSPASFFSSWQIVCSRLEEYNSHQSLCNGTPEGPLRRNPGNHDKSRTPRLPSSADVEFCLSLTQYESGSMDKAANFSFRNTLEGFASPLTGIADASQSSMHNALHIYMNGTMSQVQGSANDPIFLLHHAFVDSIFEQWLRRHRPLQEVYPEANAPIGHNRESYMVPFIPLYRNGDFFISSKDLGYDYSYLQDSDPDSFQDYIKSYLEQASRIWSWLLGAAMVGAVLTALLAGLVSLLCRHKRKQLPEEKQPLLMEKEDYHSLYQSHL
Test summary: Inhibition of human tyrosinase using L-DOPA as substrate incubated for 10 to 20 mins by MBTH dye based assay
pIC50: −log10 of the molar value.
Readout kind: pIC50

1. CC(=O)Nc1nc(-c2ccc(O)cc2O)c[nH]1 :: < 3.15
2. O=C(Nc1cccc(-c2ccc(O)cc2O)c1)C1CCCCC1 :: < 3.15
3. CN(C(=O)C1CCCCC1)c1nc(-c2ccc(O)cc2O)cs1 :: < 3.00
4. CCC(=O)Nc1nc(-c2ccc(O)cc2F)cs1 :: < 3.15
5. OCCc1ccc(O)cc1O :: < 3.70
6. CCCC(=O)Nc1cnc(-c2cc(CCC)c(O)cc2O)s1 :: < 3.00
7. CCCCc1ccc(O)c(C)c1O :: < 3.70
8. Cc1sc(NC(=O)C2CCCCC2)nc1-c1ccc(O)cc1O :: < 3.00
